molecular target: IKZF1 ZNF2_ZNF3 Q1F degron-tagged CD19 CAR (Homo sapiens, UniProt Q13422, Q146F); construct: ZNF2_ZNF3 Q1F degron (GERPFFCNQCGASFTQKGNLLRHIKLHSGEKPFKCHLCNYACRRRDALTGHLRTHS); fused on or other part: anti-CD19 scFv, CD28 transmembrane domain, 4-1BB costimulatory domain, CD3 zeta signaling domain (the CAR that carries the degron), and Nluc; experiment: Degradation of Q1F degron-tagged CD19 CAR in Jurkat cells (flow cytometry of CAR levels); type: cell-based; conditions: Ymax is the % protein degraded; Jurkat cells expressing Q1F degron-tagged CD19 CAR; 18 hours; read-out: Q1F Jurkat-YMax
Sequence (Q13422 whole entry Q146F, the tested form may be a part): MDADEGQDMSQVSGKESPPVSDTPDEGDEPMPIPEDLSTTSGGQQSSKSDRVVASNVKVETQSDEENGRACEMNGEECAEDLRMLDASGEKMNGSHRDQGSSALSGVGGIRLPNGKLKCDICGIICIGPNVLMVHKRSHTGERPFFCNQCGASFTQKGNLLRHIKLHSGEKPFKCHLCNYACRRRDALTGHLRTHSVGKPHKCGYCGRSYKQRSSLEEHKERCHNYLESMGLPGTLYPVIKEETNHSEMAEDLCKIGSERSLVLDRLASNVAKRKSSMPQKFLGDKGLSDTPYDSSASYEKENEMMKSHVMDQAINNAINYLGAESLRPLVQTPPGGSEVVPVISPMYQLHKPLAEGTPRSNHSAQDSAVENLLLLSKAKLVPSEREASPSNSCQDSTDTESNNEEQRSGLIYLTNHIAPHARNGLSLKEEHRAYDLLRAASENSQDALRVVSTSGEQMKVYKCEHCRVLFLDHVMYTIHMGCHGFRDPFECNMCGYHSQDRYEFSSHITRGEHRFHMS
property.label: Dmax (%)
Express your answer in %, writing the number without its unit.

Record excerpt, results attached:
Query string: Using the record for O=C1CCC(N2Cc3c(cc(F)c(C4CCN(Cc5cnc6ccccc6n5)CC4)c3F)C2=O)C(=O)N1 (stereo not drawn) , report its Dmax.
Result string: 85.5

Query string: What about this compound? Cc1cc(Br)cnc1CN1CCC(O)(c2c(F)cc3c(c2F)CN(C2CCC(=O)NC2=O)C3=O)CC1 (stereo not drawn)
Result string: 62.4

Query string: Please do the same for O=C1CCC(N2Cc3cc(C4CCN(CC5CCCCC5)CC4)c(F)cc3C2=O)C(=O)N1 (stereo not drawn) as well.
Result string: 88.2

Query string: Same lookup for O=C1CCC(N2Cc3c(cc(F)c(C(=O)N4CCc5c(Cl)cccc5C4)c3F)C2=O)C(=O)N1 (stereo not drawn) , please.
Result string: 95.7

Query string: And Cc1ccc(CN2CCC(O)(c3c(F)cc4c(c3F)CN(C3CCC(=O)NC3=O)C4=O)CC2)cc1C (stereo not drawn) ?
Result string: 80.2

Query string: Quick one: O=C1CCC(N2Cc3c(cc(F)c(C4CCN(C5CCCCC5)CC4)c3F)C2=O)C(=O)N1 (stereo not drawn)
Result string: 88.3

Further cases:
Query string: Can you look up the measured Dmax of O=C1CCC(N2Cc3c(cc(F)c(C4CCN(Cc5nc(C6CC6)cs5)CC4)c3F)C2=O)C(=O)N1 (stereo not drawn) for me?
Result string: 83.6

Query string: What do we get for O=C1CCC(N2Cc3c(cc(F)c(C(=O)Nc4nccn4C4CCC4)c3F)C2=O)C(=O)N1 (stereo not drawn) ?
Result string: 74.9

Query string: Continue with CS(=O)(=O)c1ccc(CN2CCC(c3cc4c(cc3F)C(=O)N(C3CCC(=O)NC3=O)C4)CC2)cc1 (stereo not drawn)
Result string: 93.1

Query string: How about O=C1CCC(N2Cc3c(cc(F)c(C4(O)CCN(Cc5ccc(C(F)(F)F)cc5O)CC4)c3F)C2=O)C(=O)N1 (stereo not drawn) ?
Result string: 80

Query string: Again, but for Cc1ccc(CCN2CCC(c3c(F)cc4c(c3F)CN(C3CCC(=O)NC3=O)C4=O)CC2)cc1 (stereo not drawn)
Result string: 82.7

###

DC50 values, listed per item
biological target: IKZF1 ZNF2_ZNF3 Q1F degron-tagged CD19 CAR (Homo sapiens, UniProt Q13422, Q146F); construct: ZNF2_ZNF3 Q1F degron (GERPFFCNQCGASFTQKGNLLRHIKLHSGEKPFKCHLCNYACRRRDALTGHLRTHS); fused on or other part: anti-CD19 scFv, CD28 transmembrane domain, 4-1BB costimulatory domain, CD3 zeta signaling domain (the CAR that carries the degron), and Nluc; test: Degradation of Q1F degron-tagged CD19 CAR in Jurkat cells (flow cytometry of CAR levels); assay type: cell-based; details: Jurkat cells expressing CD19 CAR tagged with IKZF1 ZNF2_ZNF3 Q1F; 18 hours at 37° C.; CAR levels normalized to untreated cells; read-out: Q1F Jurkat IC50
The figure you give is taken to be in nM; do not add the unit.

Example results:
Query string: Consider the compound O=C1CCC(N2Cc3c(cc(F)c(C4CCN(Cc5nc(C6CC6)cs5)CC4)c3F)C2=O)C(=O)N1 (stereo not shown) and give its measured DC50.
Result string: 30.9

Query string: Moving on to the next compound: O=C1CCC(N2Cc3cc(C4CCN(Cc5ccc(C(F)(F)F)cc5)CC4)c(F)cc3C2=O)C(=O)N1 (stereo not shown)
Result string: 1.53

Query string: Another compound: CS(=O)(=O)Nc1cccc(CN2CCC(c3c(F)cc4c(c3F)CN(C3CCC(=O)NC3=O)C4=O)CC2)c1 (stereo not shown)
Result string: 2.28

Query string: How about this compound: O=C1CCC(N2Cc3c(cc(F)c(C4CCN(Cc5ccc6c(c5)CCC6)CC4)c3F)C2=O)C(=O)N1 (stereo not shown)
Result string: 0.691

Query string: And for O=C1CCC(N2Cc3c(cc(F)c(C4CCN(CC(c5ccccc5)c5ccccc5)CC4)c3F)C2=O)C(=O)N1 (stereo not shown) ?
Result string: 0.202

Query string: Try the compound O=C1CCC(N2Cc3c(cc(F)c(C4CCN(CCCOc5ccccc5)CC4)c3F)C2=O)C(=O)N1 (stereo not shown)
Result string: 2.86

We now examine a further compound.
Query string: Given the compound O=C1CCC(N2Cc3cc(C4CCN(Cc5nc6ccccc6s5)CC4)c(F)cc3C2=O)C(=O)N1 (stereo not shown) , what is its reported DC50?
Result string: 19.9
